tested on: Pseudoperonospora cubensis; test: Cucumber Downy Mildew (PSPECU), foliar spray, percent disease control; format: in vivo; settings: foliar, read-out: PSPECU percent control
Would you kindly list pest or weed control at 200 µg/mL for each of these compounds?

Batch request: pest or weed control at 200 µg/mL per item, same order as input.
1. CC(C)c1ccc(Oc2ccc(CCNc3ncnc4nccnc34)cc2)cc1
2. FC(F)(F)COc1ccnc(Oc2ccc(CCNc3ncnc4nccnc34)cc2)n1
3. COc1cc(CCNc2ncnc3nccnc23)ccc1Oc1ncc(C(F)(F)F)cc1F

Result string:
1: 80 to 100%; 2: 80 to 100%; 3: 80 to 100%

----------
Would you kindly list pest or weed control at 200 µg/mL for each of these compounds?
system: Pseudoperonospora cubensis; assay: Cucumber Downy Mildew (PSPECU), foliar spray, percent disease control; assay type: in vivo; details: foliar, read-out: PSPECU percent control

Below, 5 compounds whose answers are already recorded.
compound	studySystem	pest or weed control at 200 µg/mL
COc1cc(CCNc2ncnc3nccnc23)ccc1Oc1ccc(C(F)(F)F)cn1 [Compound 49]	Pseudoperonospora cubensis	80 to 100%
FC(F)(F)c1cccnc1Oc1ccc(CCNc2ncnc3nccnc23)cc1 [Compound 60]	Pseudoperonospora cubensis	80 to 100%
Cc1c(CCNc2ncnc3nccnc23)ccc(Oc2cc(C(F)(F)F)ccn2)c1C [Compound 145]	Pseudoperonospora cubensis	80 to 100%
Fc1nc(Oc2ccc(CCNc3ncnc4nccnc34)cc2)c(F)c(C(F)(F)F)c1F [Compound 138]	Pseudoperonospora cubensis	80 to 100%
c1ccc(-c2ccc(CCNc3ncnc4nccnc34)cc2)cc1 [Compound 125]	Pseudoperonospora cubensis	80 to 100%

Batch request: pest or weed control at 200 µg/mL per item, same order as input.
1. FC(F)(F)c1ccc(Oc2cccc(CCNc3ncnc4nccnc34)c2)nc1 [Compound 47]
2. CC(C)Cc1nnc(Oc2ccc(CCNc3ncnc4nccnc34)cc2)s1 [Compound 26]

Result string:
["80 to 100%", "80 to 100%"]

----------
system: Pseudoperonospora cubensis; experiment: Cucumber Downy Mildew (PSPECU), foliar spray, percent disease control; assay type: in vivo; details: foliar, read-out: PSPECU percent control
observationType: pest or weed control at 200 µg/mL

Below, 8 molecules whose answers are already recorded.
Fc1nc(F)c(F)c(Oc2ccc(CCNc3ncnc4nccnc34)cc2)c1F 50 to 79%
FC(F)(F)COc1cccc(Oc2ccc(CCNc3ncnc4nccnc34)cc2)n1 50 to 79%
Ic1ccnc(Oc2ccc(CCNc3ncnc4nccnc34)cc2)c1 80 to 100%
Oc1cccc(CCNc2ncnc3nccnc23)c1 0 to 49%
COc1cc(CCNc2ncnc3nccnc23)ccc1Oc1cc(C(F)(F)F)ccn1 80 to 100%
CC(C)Oc1cc(CCNc2ncnc3nccnc23)ccc1Oc1cc(C(C)(F)F)ccn1 80 to 100%
Cc1cc(CCNc2ncnc3nccnc23)ccc1Oc1cc(C(F)(F)F)ccn1 80 to 100%
CC(C)(C)[Si](C)(C)Oc1ccc(CCNc2ncnc3nccnc23)cc1 80 to 100%

Batch request: pest or weed control at 200 µg/mL per item, same order as input.
1. CCOc1cc(CCNc2ncnc3nccnc23)ccc1Oc1ccc(C(F)(F)F)cn1
2. FC(F)(F)c1ccnc(Oc2ccc(CCNc3ncnc4ncc(Cl)nc34)cc2)n1

Result string:
80 to 100%
0 to 49%

Batch request: pest or weed control at 200 µg/mL per item, same order as input.
1. Fc1cnc(Oc2ccc(CCNc3ncnc4nccnc34)cc2)c(F)c1C(F)(F)F
2. N#Cc1c(Cl)cncc1Oc1ccc(CCNc2ncnc3ncc(Cl)nc23)cc1
3. Cc1cnc2ncnc(NCCc3ccc(Oc4ccc(C#N)cn4)cc3)c2n1

Result string:
["80 to 100%", "0 to 49%", "80 to 100%"]

----------
Would you kindly list pest or weed control at 200 µg/mL for each of these molecules?
tested on: Pseudoperonospora cubensis; assay: Cucumber Downy Mildew (PSPECU), foliar spray, percent disease control; assay type: in vivo; conditions: foliar, read-out: PSPECU percent control

molecule	pest or weed control at 200 µg/mL
Cc1cnc2ncnc(NCCc3ccc(Oc4cc(C(F)(F)F)ccn4)cc3)c2n1	80 to 100%
Cc1cnc2ncnc(NCCc3ccc(Oc4ccc(C(F)(F)F)cn4)cc3)c2n1	80 to 100%
c1csc(Oc2ccc(CCNc3ncnc4nccnc34)cc2)n1	80 to 100%
Ic1ccnc(Oc2cccc(CCNc3ncnc4nccnc34)c2)c1	80 to 100%
FC(F)(F)c1ccnc(Cl)c1Oc1ccc(CCNc2ncnc3nccnc23)cc1	50 to 79%
Cc1cc(CCNc2ncnc3nccnc23)ccc1O	0 to 49%
N#Cc1c(Cl)cncc1Oc1ccc(CCNc2ncnc3nccnc23)cc1	80 to 100%
CON=C(C)c1ccnc(Oc2ccc(CCNc3ncnc4nccnc34)cc2)c1	80 to 100%
COC(=O)c1ccnc(Oc2ccc(CCNc3ncnc4nccnc34)cc2)c1	80 to 100%
Fc1cc(C(F)(F)F)ccc1Oc1ccc(CCNc2ncnc3nccnc23)cc1	80 to 100%

Batch request: pest or weed control at 200 µg/mL per item, same order as input.
1. Brc1nsc(Oc2ccc(CCNc3ncnc4nccnc34)cc2)n1
2. CC(C)OC(=O)c1cnc(Oc2ccc(CCNc3ncnc4nccnc34)cc2)c(Cl)c1
3. N#Cc1ccc(Oc2ccc(CCNc3ncnc4nccnc34)c(F)c2)nc1
4. FC(F)(F)c1nc(Oc2ccc(CCNc3ncnc4nccnc34)cc2)sc1Cl
5. FC(F)(F)c1ccc(Oc2cccc(OCCNc3ncnc4nccnc34)c2)nc1
6. Cc1cc(Oc2cc(C(F)(F)F)ccn2)c(C)cc1CCNc1ncnc2nccnc12
7. COc1cc(CCNc2ncnc3nccnc23)ccc1Oc1cc(C(C)(F)F)ccn1

Result string:
0 to 49%
0 to 49%
80 to 100%
80 to 100%
80 to 100%
80 to 100%
80 to 100%

Batch request: pest or weed control at 200 µg/mL per item, same order as input.
1. Fc1cc(C(F)(F)F)cnc1Oc1ccc(CCNc2ncnc3ncc(Cl)nc23)cc1
2. Fc1c(F)c(C(F)(F)F)c(F)c(F)c1Oc1ccc(CCNc2ncnc3nccnc23)cc1
3. c1ccc(COc2ccc(CCOc3ccc(CCNc4ncnc5nccnc45)cc3)cc2)cc1
4. Cc1nc2ncnc(NCCc3ccc(O)cc3)c2nc1C
5. Fc1cccc(Oc2ccc(OCCNc3ncnc4nccnc34)cc2)n1
6. CC(C)(C)COC(=O)c1ccnc(Oc2ccc(CCNc3ncnc4nccnc34)cc2)c1

Result string:
0 to 49%
80 to 100%
80 to 100%
0 to 49%
80 to 100%
80 to 100%

Batch request: pest or weed control at 200 µg/mL per item, same order as input.
1. O=C(c1ccnc(Oc2ccc(CCNc3ncnc4nccnc34)cc2)c1)C1CC1
2. CCOC(=O)c1ccc(Oc2ccc(CCNc3ncnc4nccnc34)cc2)nc1
3. O=Cc1cc(Cl)cnc1Oc1ccc(CCNc2ncnc3nccnc23)cc1
4. Cc1nnsc1Oc1ccc(CCNc2ncnc3nccnc23)cc1
5. Cc1cc(C(F)(F)F)cc(Oc2ccc(CCNc3ncnc4nccnc34)cc2)n1

Result string:
80 to 100%
0 to 49%
80 to 100%
0 to 49%
80 to 100%

Batch request: pest or weed control at 200 µg/mL per item, same order as input.
1. Fc1cc(F)c(Oc2ccc(CCNc3ncnc4nccnc34)cc2)nc1F
2. CCOc1cccc(Oc2ccc(CCNc3ncnc4nccnc34)cc2)n1
3. c1ccc(-c2nnsc2Oc2ccc(CCNc3ncnc4nccnc34)cc2)cc1
4. c1ccc(OCc2nnc(Oc3ccc(CCNc4ncnc5nccnc45)cc3)s2)cc1
5. CC(Nc1ncnc2nccnc12)c1ccc(Oc2cc(C(F)(F)F)ccn2)cc1 (stereo not drawn)

Result string:
1: 80 to 100%; 2: 80 to 100%; 3: 50 to 79%; 4: 0 to 49%; 5: 80 to 100%

Batch request: pest or weed control at 200 µg/mL per item, same order as input.
1. Cc1nc2ncnc(NCCc3ccc(Oc4ncc(C(F)(F)F)cc4F)cc3)c2nc1C
2. Fc1cc(Oc2ncc(C(F)(F)F)cc2F)ccc1CCNc1ncnc2nccnc12

Result string:
["80 to 100%", "80 to 100%"]

Query string: Look at this molecule and give its reported pest or weed control at 200 µg/mL. `Cc1cc(CCNc2ncnc3nccnc23)ccc1Oc1cc(C(C)(F)F)ccn1`
Result string: 80 to 100%

----------
test system: Cochliobolus sativus; assay: Spot Blotch of Wheat (COCHSA), foliar spray, percent disease control; type: in vivo; settings: Bipolaris sorokiniana, foliar, read-out: COCHSA percent control
Would you kindly list pest or weed control at 200 µg/mL for each of these compounds?

CC(C)(C)[Si](C)(C)Oc1ccc(CCNc2ncnc3nccnc23)cc1 0 to 49%
FC(F)(F)c1cccc(-c2ccc(CCNc3ncnc4nccnc34)cc2)c1 0 to 49%
c1ccc(-c2ccc(CCNc3ncnc4nccnc34)cc2)cc1 0 to 49%

Query string: Look at this compound and give its reported pest or weed control at 200 µg/mL. `CC(C)(C)OC(=O)N(CCc1ccc(O[Si](C)(C)C(C)(C)C)cc1)c1ncnc2nccnc12`
Result string: 0 to 49%
